experiment: Clearance in ICR mouse 1 mg/kg, iv measured for 24 hrs by HPLC-MS analysis; assay type: ADME, organism-based; details: in vivo
Quantity measured: clearance (mL/min/kg)

INSERT INTO assay_data (mol_smiles, quantity_measured, value_reported) VALUES
  ('COc1c(CO)c(OC)c(C(=O)c2ccccc2)c2c1C[C@H]1CC/C(C)=C/CC(C)(C)/C=C/C[C@]1(C)O2', 'clearance', 114);

----------
test: AUC (0 to t) in ICR mouse 50 mg/kg, po measured for 24 hrs by HPLC-MS analysis; type: ADME, organism-based; conditions: in vivo
Quantity measured: AUC(0-t) at 24 h (ng·h/mL)

INSERT INTO results (mol_smiles, value_reported) VALUES
  ('COc1c(CO)c(OC)c(C(=O)c2ccccc2)c2c1C[C@H]1CC/C(C)=C/CC(C)(C)/C=C/C[C@]1(C)O2', 783);

----------
experiment: MRT (0 to infinity) in ICR mouse 1 mg/kg, iv measured for 24 hrs by HPLC-MS analysis; assay type: ADME, organism-based; conditions: in vivo
Quantity measured: MRT inf (h)

INSERT INTO results (mol_smiles, value_reported) VALUES
  ('COc1c(CO)c(OC)c(C(=O)c2ccccc2)c2c1C[C@H]1CC/C(C)=C/CC(C)(C)/C=C/C[C@]1(C)O2', 2.22);
